tested on: RPMI-8226 leukemia; test: NCI tumour cell line growth inhibition, 48 h
Below, each entry is listed with its recorded TGI.
The reply should contain only the number, in µM.

Report TGI for CCOC(=O)c1c(NC(=O)c2ccccc2)sc2c3c(ccc12)OCN(C)C3 tested on RPMI-8226 leukemia.
3.87

Report TGI for Cc1ccc(/C=C/c2c(C(=O)/C=C/c3ccc(Cl)cc3)c(C)nc3ccccc23)cc1 tested on RPMI-8226 leukemia.
5.95

Report TGI for Cc1ccc(Cl)cc1NC(=O)c1cc2ccccc2cc1O tested on RPMI-8226 leukemia.
0.354

Report TGI for Cc1ccc(-c2nc(N3CCNCC3)c3oc(-c4ccccc4)nc3n2)cc1 tested on RPMI-8226 leukemia.
4.77

Report TGI for Cc1nc(-c2cnc(NC(C)C)n(C)c2=O)ccc1Oc1ccnc(-c2cnn(C)c2)c1 tested on RPMI-8226 leukemia.
81.7
